Reference source: the supplement of paper PMC13386468

# Experimental system: UniProt Q8IIB6
# Assay remarks: IC50 for competition of protein binding to Kinobeads
# Condition parameters: assay detail: Kinobeads competition in P. falciparum blood-stage lysate
pIC50: −log10 of the molar value.
Measurement name: pIC50

Could you tell me which pIC50 is on file for O=c1[nH]c2ccc(Cl)cc2c(NC2CN3CCC2CC3)c1-c1nc2ccccc2[nH]1 (stereo unspecified) [CHIR-124] ?
< 4.70

###

# Experimental system: UniProt Q9U0I0
# Assay remarks: IC50 for competition of protein binding to Kinobeads
# Condition parameters: assay detail: Kinobeads competition in P. falciparum blood-stage lysate
Measurement name: IC50

Could you tell me which IC50 is on file for O=c1[nH]c2ccc(Cl)cc2c(NC2CN3CCC2CC3)c1-c1nc2ccccc2[nH]1 (stereo unspecified) [CHIR-124] ?
> 20 µM

###

# Experimental system: UniProt Q8IJT8
# Assay remarks: IC50 for competition of protein binding to Kinobeads
# Condition parameters: assay detail: Kinobeads competition in P. falciparum blood-stage lysate
pIC50: −log10 of the molar value.
Measurement name: pIC50

Could you tell me which pIC50 is on file for O=c1[nH]c2ccc(Cl)cc2c(NC2CN3CCC2CC3)c1-c1nc2ccccc2[nH]1 (stereo unspecified) [CHIR-124] ?
< 4.70

###

# Experimental system: UniProt Q8I5V9
# Assay remarks: IC50 for competition of protein binding to Kinobeads
# Condition parameters: assay detail: Kinobeads competition in P. falciparum blood-stage lysate
pIC50: −log10 of the molar value.
Measurement name: pIC50

Missing value: pIC50, UniProt Q8I5V9, entry O=c1[nH]c2ccc(Cl)cc2c(NC2CN3CCC2CC3)c1-c1nc2ccccc2[nH]1 (stereo unspecified) [CHIR-124] . Fill in?
< 4.70

###

# Experimental system: UniProt C0H4R8
# Assay remarks: apparent dissociation constant (Kd app) from Kinobeads competition
# Condition parameters: assay detail: Kinobeads competition in P. falciparum blood-stage lysate
Measurement name: Kd (µM)
All answers are understood in µM, so give the number only.

Missing value: Kd, UniProt C0H4R8, entry O=c1[nH]c2ccc(Cl)cc2c(NC2CN3CCC2CC3)c1-c1nc2ccccc2[nH]1 (stereo unspecified) . Fill in?
4.84

###

# Experimental system: UniProt C0H586
# Assay remarks: IC50 for competition of protein binding to Kinobeads
# Condition parameters: assay detail: Kinobeads competition in P. falciparum blood-stage lysate
Measurement name: IC50

Could you tell me which IC50 is on file for O=c1[nH]c2ccc(Cl)cc2c(NC2CN3CCC2CC3)c1-c1nc2ccccc2[nH]1 (stereo unspecified) [CHIR-124] ?
> 20 µM

###

# Experimental system: UniProt C6KSV2
# Assay remarks: IC50 for competition of protein binding to Kinobeads
# Condition parameters: assay detail: Kinobeads competition in P. falciparum blood-stage lysate
Measurement name: IC50

Could you tell me which IC50 is on file for O=c1[nH]c2ccc(Cl)cc2c(NC2CN3CCC2CC3)c1-c1nc2ccccc2[nH]1 (stereo unspecified) [CHIR-124] ?
> 20 µM

###

# Experimental system: UniProt Q8IJZ9
# Assay remarks: IC50 for competition of protein binding to Kinobeads
# Condition parameters: assay detail: Kinobeads competition in P. falciparum blood-stage lysate
pIC50: −log10 of the molar value.
Measurement name: pIC50

Missing value: pIC50, UniProt Q8IJZ9, entry O=c1[nH]c2ccc(Cl)cc2c(NC2CN3CCC2CC3)c1-c1nc2ccccc2[nH]1 (stereo unspecified) . Fill in?
< 4.70
